tested on: 817829-284-R-J1-PDC multi-cell spheroid viability; assay: Anticancer human tumor 817829-284-R-J1-PDC patient-derived colon adenocarcinoma cell line growth inhibition [PI3K]; settings: curve of first compound; second compound 0.0316 µM
pIC50: −log10 of the molar value.
endpoint.name: pIC50

The following molecules have reported results that may help.
{"columns": ["molecule", "test.result"],
 "data": [
  ["CC1(C)CCC(Nc2ncc(C(F)(F)F)c(-c3c[nH]c4c(P(C)(C)=O)c(C#N)ccc34)n2)CN1 (stereo not drawn) + CC(Nc1ccc2c(c1)OCCn1cc(N3C(=O)OCC3C(F)F)nc1-2)C(N)=O", "> 7.50"],
  ["C=CC(=O)N1CCN(c2nc(=O)n(-c3c(C)ccnc3C(C)C)c3nc(-c4c(O)cccc4F)c(F)cc23)C(C)C1 (stereo not drawn) + CC(Nc1ccc2c(c1)OCCn1cc(N3C(=O)OCC3C(F)F)nc1-2)C(N)=O", "< 5.00"]
]}

stdin: Record request: pIC50 value, item CNC(=O)c1ccc(N2C(=S)N(c3ccc(C#N)c(C(F)(F)F)c3)C(=O)C2(C)C)cc1F + CC(Nc1ccc2c(c1)OCCn1cc(N3C(=O)OCC3C(F)F)nc1-2)C(N)=O
stdout: < 5.00

---

test system: 817829-284-R-J1-PDC multi-cell spheroid viability; test: Anticancer human tumor 817829-284-R-J1-PDC cell line growth inhibition [PI3K]; conditions: curve of first compound; second compound 0.0316 µM;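 further: spheroids exposed to agents for seven days before readout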
pIC50: −log10 of the molar value.
endpoint.name: pIC50

{"columns": ["compound", "test.result"],
 "data": [
  ["CC(Cn1ccc(-c2ccc(C#N)c(Cl)c2)n1)NC(=O)c1cc(C(C)O)[nH]n1 (centres undefined) + CC(Nc1ccc2c(c1)OCCn1cc(N3C(=O)OCC3C(F)F)nc1-2)C(N)=O", "< 5.00"]
]}

stdin: Record request: pIC50 value, item CC1(C)CCC(CN2CCN(c3ccc(C(=O)NS(=O)(=O)c4ccc(NCC5CCOCC5)c([N+](=O)[O-])c4)c(Oc4cnc5[nH]ccc5c4)c3)CC2)=C(c2ccc(Cl)cc2)C1 + COc1c(OCCCN2CCOCC2)ccc2c3n(c(=NC(=O)c4cnc(N)nc4)nc12)CCN3
stdout: < 5.00

stdin: Record request: pIC50 value, item CC(Cn1ccc(-c2ccc(C#N)c(Cl)c2)n1)NC(=O)c1cc(C(C)O)[nH]n1 (centres undefined) + CC(Nc1ncnc2nc[nH]c12)c1cc2cccc(Cl)c2c(=O)n1-c1ccccc1
stdout: < 5.00

stdin: Record request: pIC50 value, item C#Cc1c(F)ccc2cc(O)cc(-c3ncc4c(N5CC6CCC(C5)N6)nc(OCC56CCCN5CC(F)C6)nc4c3F)c12 (centres undefined) + CC(Nc1ccc2c(c1)OCCn1cc(N3C(=O)OCC3C(F)F)nc1-2)C(N)=O
stdout: < 5.00

stdin: Record request: pIC50 value, item CNC(=O)c1ccc(N2C(=S)N(c3ccc(C#N)c(C(F)(F)F)c3)C(=O)C2(C)C)cc1F + Cc1nc(NC(=O)N2CCCC2C(N)=O)sc1-c1ccnc(C(C)(C)C(F)(F)F)c1
stdout: < 5.00

stdin: Record request: pIC50 value, item CC1(C)CCC(Nc2ncc(C(F)(F)F)c(-c3c[nH]c4c(P(C)(C)=O)c(C#N)ccc34)n2)CN1 (centres undefined) + Cc1nc(NC(=O)N2CCCC2C(N)=O)sc1-c1ccnc(C(C)(C)C(F)(F)F)c1
stdout: > 7.50

---

system: 817829-284-R-J1-PDC multi-cell spheroid viability; experiment: Anticancer human tumor 817829-284-R-J1-PDC cell line growth inhibition [PI3K]; conditions: second compound 0.0316 µM; first compound 0.1 µM; stronger effect = lower value;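 further: spheroids exposed to agents for seven days before readout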;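 on viability, T/C: percent of vehicle DMSO control viability which is 100%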
endpoint.name: viability, T/C (%)
Return type: number; implicit unit %.

The following compounds have reported results that may help.
{"columns": ["compound", "test.result"],
 "data": [
  ["CC(=O)c1c(C)c2cnc(Nc3ccc(N4CCNCC4)cn3)nc2n(C2CCCC2)c1=O + CC(Nc1ncnc2nc[nH]c12)c1cc2cccc(Cl)c2c(=O)n1-c1ccccc1", 38.6],
  ["CC(Cn1ccc(-c2ccc(C#N)c(Cl)c2)n1)NC(=O)c1cc(C(C)O)[nH]n1 (centres undefined) + Cc1nc(NC(=O)N2CCCC2C(N)=O)sc1-c1ccnc(C(C)(C)C(F)(F)F)c1", 92.1],
  ["CCCS(=O)(=O)Nc1ccc(F)c(C(=O)c2c[nH]c3ncc(-c4ccc(Cl)cc4)cc23)c1F + CC(Nc1ccc2c(c1)OCCn1cc(N3C(=O)OCC3C(F)F)nc1-2)C(N)=O", 52.4]
]}

We next turn to a different compound, shown below.
stdin: Record request: viability, T/C value, item CC1(C)CCC(CN2CCN(c3ccc(C(=O)NS(=O)(=O)c4ccc(NCC5CCOCC5)c([N+](=O)[O-])c4)c(Oc4cnc5[nH]ccc5c4)c3)CC2)=C(c2ccc(Cl)cc2)C1 + CC(Nc1ccc2c(c1)OCCn1cc(N3C(=O)OCC3C(F)F)nc1-2)C(N)=O
stdout: 107

---

system: 817829-284-R-J1-PDC multi-cell spheroid viability; test: Anticancer human tumor 817829-284-R-J1-PDC cell line growth inhibition [PI3K]; details: curve of first compound; second compound 0.1 µM;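 further: spheroids exposed to agents for seven days before readout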
Collected IC50 values appear next to each entry.

{"columns": ["compound", "IC50"],
 "data": [
  ["CC(Cn1ccc(-c2ccc(C#N)c(Cl)c2)n1)NC(=O)c1cc(C(C)O)[nH]n1 (stereo not given) + CC(Nc1ccc2c(c1)OCCn1cc(N3C(=O)OCC3C(F)F)nc1-2)C(N)=O", "> 10 µM"],
  ["CC(Cn1ccc(-c2ccc(C#N)c(Cl)c2)n1)NC(=O)c1cc(C(C)O)[nH]n1 (stereo not given) + COc1c(OCCCN2CCOCC2)ccc2c3n(c(=NC(=O)c4cnc(N)nc4)nc12)CCN3", "< 0.0316 µM"],
  ["CC1(C)CCC(Nc2ncc(C(F)(F)F)c(-c3c[nH]c4c(P(C)(C)=O)c(C#N)ccc34)n2)CN1 (stereo not given) + Cc1nc(NC(=O)N2CCCC2C(N)=O)sc1-c1ccnc(C(C)(C)C(F)(F)F)c1", "< 0.0316 µM"]
]}

stdin: Record request: IC50 value, item CCN1CCN(Cc2ccc(Nc3ncc(F)c(-c4cc(F)c5nc(C)n(C(C)C)c5c4)n3)nc2)CC1 + COc1c(OCCCN2CCOCC2)ccc2c3n(c(=NC(=O)c4cnc(N)nc4)nc12)CCN3
stdout: < 0.00316 µM

stdin: Record request: IC50 value, item CC(C)NCC(C(=O)N1CCN(c2ncnc3c2C(C)CC3O)CC1)c1ccc(Cl)cc1 (stereo not given) + COc1c(OCCCN2CCOCC2)ccc2c3n(c(=NC(=O)c4cnc(N)nc4)nc12)CCN3
stdout: < 0.0316 µM

stdin: Record request: IC50 value, item CNC(=O)c1ccc(N2C(=S)N(c3ccc(C#N)c(C(F)(F)F)c3)C(=O)C2(C)C)cc1F + COc1c(OCCCN2CCOCC2)ccc2c3n(c(=NC(=O)c4cnc(N)nc4)nc12)CCN3
stdout: < 0.0316 µM

stdin: Record request: IC50 value, item CC(=O)c1c(C)c2cnc(Nc3ccc(N4CCNCC4)cn3)nc2n(C2CCCC2)c1=O + COc1c(OCCCN2CCOCC2)ccc2c3n(c(=NC(=O)c4cnc(N)nc4)nc12)CCN3
stdout: < 0.000316 µM

stdin: Record request: IC50 value, item CC(C)n1nc(-c2ccc3oc(N)nc3c2)c2c(N)ncnc21 + COc1c(OCCCN2CCOCC2)ccc2c3n(c(=NC(=O)c4cnc(N)nc4)nc12)CCN3
stdout: < 0.000316 µM

stdin: Record request: IC50 value, item CC(Cn1ccc(-c2ccc(C#N)c(Cl)c2)n1)NC(=O)c1cc(C(C)O)[nH]n1 (stereo not given) + Cc1nc(NC(=O)N2CCCC2C(N)=O)sc1-c1ccnc(C(C)(C)C(F)(F)F)c1
stdout: < 0.0316 µM

stdin: Record request: IC50 value, item C[C@@H](NC(=O)c1ncnc(N)c1Cl)c1ncc(C(=O)Nc2cc(C(F)(F)F)c(Cl)cn2)s1 + Cc1nc(NC(=O)N2CCCC2C(N)=O)sc1-c1ccnc(C(C)(C)C(F)(F)F)c1
stdout: > 10 µM

---

Collected viability, T/C values appear next to each entry.
tested on: 817829-284-R-J1-PDC multi-cell spheroid viability; assay: Anticancer human tumor 817829-284-R-J1-PDC cell line growth inhibition [PI3K]; conditions: second compound 0.00316 µM; first compound 3.16 µM; stronger effect = lower value;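 further: spheroids exposed to agents for seven days before readout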;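 on viability, T/C: percent of vehicle DMSO control viability which is 100%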
Return type: number; implicit unit %.

stdin: Record request: viability, T/C value, item CC(Cn1ccc(-c2ccc(C#N)c(Cl)c2)n1)NC(=O)c1cc(C(C)O)[nH]n1 (stereo not drawn) + COc1c(OCCCN2CCOCC2)ccc2c3n(c(=NC(=O)c4cnc(N)nc4)nc12)CCN3
stdout: 64.5

stdin: Record request: viability, T/C value, item C[C@@H](NC(=O)c1ncnc(N)c1Cl)c1ncc(C(=O)Nc2cc(C(F)(F)F)c(Cl)cn2)s1 + COc1c(OCCCN2CCOCC2)ccc2c3n(c(=NC(=O)c4cnc(N)nc4)nc12)CCN3
stdout: 69.7

stdin: Record request: viability, T/C value, item CC(Cn1ccc(-c2ccc(C#N)c(Cl)c2)n1)NC(=O)c1cc(C(C)O)[nH]n1 (stereo not drawn) + CC(Nc1ccc2c(c1)OCCn1cc(N3C(=O)OCC3C(F)F)nc1-2)C(N)=O
stdout: 94.4
